Hello, the source for this data is patent US20260297129A1, in case you need it.

# test: Protease stability in simulated gastric fluids (FaSSGF) (Table 7)
# Assay type: in vitro ADME
# measurementSetup: fassgf with pepsin, 60 min, 37° C., read-out: Remaining percentage of peptide compound, FaSSGF 60 (min)
Numbered stars: 1 amine (or outer) side, 2 acyl side, 3 side chain; on linkers, the order of the positions; unused ones are H or OH. Bridge positions count the residues as written; N and C are the ends. Square brackets hold non-standard residues; d marks the D form. Peptide text beside a SMILES is read from it. * marks the point of attachment. Lys(Me,(CH2)4NMe(CH2)5CO) = CN(CCCCCC(=O)[*:3])CCCCN(C)CCCC[C@H](N[*:1])C(=O)[*:2]; Lys(Me,(CH2)4NMe(CH2)4CO) = CN(CCCCC(=O)[*:3])CCCCN(C)CCCC[C@H](N[*:1])C(=O)[*:2]; Trp(7-Me) = Cc1cccc2c(C[C@H](N)C(=O)O)c[nH]c12; Trp(1-Me) = Cn1cc(C[C@H](N)C(=O)O)c2ccccc21; Sebacoyl = O=C(CCCCCCCCC(=O)[*:2])[*:1]; αMeLys(Me2) = CN(C)CCCC[C@](C)(N)C(=O)O; NH(CH2)9CO = O=C(CCCCCCCCCN[*:1])[*:2]; 2Nal = N[C@@H](Cc1ccc2ccccc2c1)C(=O)O; d2Nal = N[C@H](Cc1ccc2ccccc2c1)C(=O)O; 3Pal = N[C@@H](Cc1cccnc1)C(=O)O; Lys(Me) = CNCCCC[C@H](N)C(=O)O; Aun = NCCCCCCCCCCC(=O)O; Thp = NC1(C(=O)O)CCOCC1; Me2NCH2CH2 = CN(C)CC*; Aib = CC(C)(N)C(=O)O; Sar = CNCC(=O)O
assayMetric: remaining at 1 h, 1 µM (%)
Use % as the unit, but write only the number.

Consider the following illustrative entries.
molecule	unitAbbreviation	remaining at 1 h, 1 µM
Cc1cccc2c(C[C@@H]3NC(=O)CCCCCCCCCCNC(=O)CC[C@@H](C(=O)N[C@@H](CC(N)=O)C(=O)N[C@@H](Cc4cccnc4)C(=O)N(C)CC(N)=O)NC(=O)C(C)(C)NC(=O)[C@H](Cc4ccc5ccccc5c4)NC(=O)[C@H](Cc4ccc(OCCN(C)C)cc4)NC(=O)C(C)(C)NC(=O)[C@H](CCC(N)=O)NC3=O)c[nH]c12 [compound 35] ([Aun][Trp(7-Me)]Q[Aib]Y(Me2NCH2CH2)[2Nal][Aib]EN[3Pal][Sar]-NH2; lactam N-8)	%	86
Cc1cccc2c(C[C@@H]3NC(=O)CCCCCCCCCCNC(=O)CC[C@@H](C(=O)N[C@@H](CC(N)=O)C(=O)N[C@@H](Cc4cccnc4)C(=O)N(C)CC(N)=O)NC(=O)[C@](C)(CCCCN(C)C)NC(=O)[C@H](Cc4ccc5ccccc5c4)NC(=O)[C@H](Cc4ccc(OCCN(C)C)cc4)NC(=O)C4(CCOCC4)NC(=O)[C@H](CCC(N)=O)NC3=O)c[nH]c12 [compound 20] ([Aun][Trp(7-Me)]Q[Thp]Y(Me2NCH2CH2)[2Nal][αMeLys(Me2)]EN[3Pal][Sar]-NH2; lactam N-8)	%	91
Cc1cccc2c(C[C@@H]3NC(=O)CCCCCCCCC(=O)N(C)CCCC[C@@H](C(=O)N[C@@H](CC(N)=O)C(=O)N[C@@H](Cc4cccnc4)C(=O)N(C)CC(N)=O)NC(=O)C(C)(C)NC(=O)[C@H](Cc4ccc5ccccc5c4)NC(=O)[C@H](Cc4ccc(OCCN(C)C)cc4)NC(=O)C4(CCOCC4)NC(=O)[C@H](CCC(N)=O)NC3=O)c[nH]c12 [compound 19] ([Trp(7-Me)]Q[Thp]Y(Me2NCH2CH2)[2Nal][Aib][Lys(Me)]N[3Pal][Sar]-NH2; linker N-7 via Sebacoyl)	%	97

Input line: // remaining at 1 h, 1 µM lookup, key: CN(C)CCOc1ccc(C[C@@H]2NC(=O)C3(CCOCC3)NC(=O)[C@H](CCC(N)=O)NC(=O)[C@H](Cc3cn(C)c4ccccc34)NC(=O)CCCCCN(C)CCCCN(C)CCCC[C@@H](C(=O)N[C@@H](CC(N)=O)C(=O)N[C@@H](Cc3cccnc3)C(=O)N(C)CC(N)=O)NC(=O)C(C)(C)NC(=O)[C@H](Cc3ccc4ccccc4c3)NC2=O)cc1 [compound 33] ([Trp(1-Me)]Q[Thp]Y(Me2NCH2CH2)[2Nal][Aib][Lys(Me,(CH2)4NMe(CH2)5CO)]N[3Pal][Sar]-NH2; lactam N-7)
Output line: 100

Input line: Find the recorded remaining at 1 h, 1 µM belonging to CC(=O)NCCCC[C@@H]1NC(=O)[C@H](Cc2c[nH]c3ccccc23)NC(=O)CCCCN(C)CCCCN(C)CCCC[C@@H](C(=O)N[C@@H](CO)C(=O)N[C@@H](Cc2cccnc2)C(=O)N(C)CC(N)=O)NC(=O)C(C)(C)NC(=O)[C@H](Cc2ccc3ccccc3c2)NC(=O)[C@H](Cc2ccc(OCCN(C)C)cc2)NC(=O)C2(CCOCC2)NC1=O [compound 42] (WK(Ac)[Thp]Y(Me2NCH2CH2)[2Nal][Aib][Lys(Me,(CH2)4NMe(CH2)4CO)]S[3Pal][Sar]-NH2; lactam N-7) and report it.
Output line: 100

Input line: Fill in: remaining at 1 h, 1 µM of Cc1cccc2c(C[C@@H]3NC(=O)CCCCCCCCCNC(=O)CC[C@@H](C(=O)N[C@@H](CC(N)=O)C(=O)N[C@@H](Cc4cccnc4)C(=O)N(C)CC(N)=O)NC(=O)C(C)(C)NC(=O)[C@H](Cc4ccc5ccccc5c4)NC(=O)[C@H](Cc4ccc(OCCN(C)C)cc4)NC(=O)C4(CCOCC4)NC(=O)[C@H](CCC(N)=O)NC3=O)c[nH]c12 [compound 5] ([NH(CH2)9CO][Trp(7-Me)]Q[Thp]Y(Me2NCH2CH2)[2Nal][Aib]EN[3Pal][Sar]-NH2; lactam N-8) is ___
Output line: 87

Input line: Given the molecule CN(C)CCOc1ccc(C[C@@H]2NC(=O)C3(CCOCC3)NC(=O)[C@H](CCC(N)=O)NC(=O)[C@H](Cc3c[nH]c4ccccc34)NC(=O)CCCCN(C)CCCCN(C)CCCC[C@@H](C(=O)N[C@@H](CO)C(=O)N[C@@H](Cc3cccnc3)C(=O)N(C)CC(N)=O)NC(=O)C(C)(C)NC(=O)[C@H](Cc3ccc4ccccc4c3)NC2=O)cc1 [compound 41] (WQ[Thp]Y(Me2NCH2CH2)[2Nal][Aib][Lys(Me,(CH2)4NMe(CH2)4CO)]S[3Pal][Sar]-NH2; lactam N-7) , what is its reported remaining at 1 h, 1 µM?
Output line: 95

Input line: Report remaining at 1 h, 1 µM for Cc1cccc2c(C[C@@H]3NC(=O)CCCCCCCCCCNC(=O)CC[C@@H](C(=O)N[C@@H](CC(N)=O)C(=O)N[C@@H](Cc4cccnc4)C(=O)N(C)CC(N)=O)NC(=O)C(C)(C)NC(=O)[C@@H](Cc4ccc5ccccc5c4)NC(=O)[C@H](Cc4ccc(OCCN(C)C)cc4)NC(=O)C4(CCOCC4)NC(=O)[C@H](CCC(N)=O)NC3=O)c[nH]c12 [compound 4] ([Aun][Trp(7-Me)]Q[Thp]Y(Me2NCH2CH2)[d2Nal][Aib]EN[3Pal][Sar]-NH2; lactam N-8) please.
Output line: 80
